# Tested on: SK-OV-3
# procedure-text: Cytotoxicity assay (cell titer-glo and calcein AM), SK-OV-3
# assay-setup: read-out: Cytotoxicity IC50, SK-OV-3, calcein; SK-OV-3; calcein AM readout; % error in parentheses
Consider the following molecules and their measured pIC50 readings.
FYI, pIC50 means -log10 of a concentration in mol per litre.

molecule	tested-target	pIC50
COc1cc2c(c(OC)c1OC)-c1ccc(OC)c(=O)cc1[C@@H](NC(=O)CN(OC)[C@@H]1O[C@H](C(=O)O)[C@H](O)[C@H](O)[C@H]1O)CC2 [Col18, D-Galacturonoside]	SK-OV-3	5.97

Query: Entry under review: COc1cc2c(c(OC)c1OC)-c1ccc(OC)c(=O)cc1[C@@H](NC(=O)CN(OC)[C@@H]1O[C@H](C(=O)O)[C@@H](O)[C@H](O)[C@H]1O)CC2 [Col15, D-glucuronoside] . Reported pIC50?
Result: 5.54
